Target: NAD-dependent protein deacetylase sirtuin-1 (Homo sapiens) (UniProt Q96EB6)
Sequence (Q96EB6 whole entry): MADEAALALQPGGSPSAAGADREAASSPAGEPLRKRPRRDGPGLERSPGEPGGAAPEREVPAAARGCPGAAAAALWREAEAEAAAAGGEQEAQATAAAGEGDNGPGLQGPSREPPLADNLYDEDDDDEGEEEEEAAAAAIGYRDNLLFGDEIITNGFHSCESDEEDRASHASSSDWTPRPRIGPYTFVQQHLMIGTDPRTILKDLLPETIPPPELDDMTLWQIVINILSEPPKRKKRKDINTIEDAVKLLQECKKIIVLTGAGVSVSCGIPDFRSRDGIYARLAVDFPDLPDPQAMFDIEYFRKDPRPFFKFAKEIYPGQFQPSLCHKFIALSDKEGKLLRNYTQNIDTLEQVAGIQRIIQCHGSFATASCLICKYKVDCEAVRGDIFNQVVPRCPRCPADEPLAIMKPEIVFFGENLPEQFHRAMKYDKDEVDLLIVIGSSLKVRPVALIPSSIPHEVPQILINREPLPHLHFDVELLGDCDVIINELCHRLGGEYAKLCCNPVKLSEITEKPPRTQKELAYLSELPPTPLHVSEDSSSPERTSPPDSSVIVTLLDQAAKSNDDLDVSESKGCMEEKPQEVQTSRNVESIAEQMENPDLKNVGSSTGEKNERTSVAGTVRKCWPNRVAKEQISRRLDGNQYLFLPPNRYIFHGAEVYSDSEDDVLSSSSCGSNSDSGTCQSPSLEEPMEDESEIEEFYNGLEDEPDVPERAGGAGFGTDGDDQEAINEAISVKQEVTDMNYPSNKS
Assay: Activation of human SIRT1 expressed in Escherichia coli BL21 (DE3) assessed as concentration required to increase 50% enzyme activity by fluorescence polarization assay
parameterMeasured: EC1.5 (µM)

Sample records with EC1.5:
What EC1.5 value was documented for this molecule, COc1ccc(C(=O)Nc2ccccc2-c2nc3ncccc3[nH]2)cc1OC ?
0.5

Do the same for COc1cc(C)ccc1C(=O)Nc1ccccc1-c1nc2ncccc2[nH]1 please
4.1

Do the same for CN(C)c1cccc(C(=O)Nc2ccccc2-c2nc3ncccc3o2)c1 please
4.4

Do the same for COc1cc(C)ccc1C(=O)Nc1ccc(-c2nc3ncccc3[nH]2)cc1 please
2.3

Do the same for COc1ccc(C(=O)Nc2cc(C(=O)NCCN(C)C)cc(-c3nc4ncccc4o3)c2)cc1OC please
0.7

I: O=C(Nc1ccccc1-c1nc2ccccc2[nH]1)c1cnc2ccccc2n1
II: COc1ccc(C(=O)Nc2cc(CN(C)C)cc(-c3nc4ncccc4o3)c2)cc1OC
Given the listed records, identify the one among I and II with higher EC1.5. Response format: the label of the selected entry.
II
(II: 1.1 µM, I: 0.3 µM)

a: COc1ccc(C(=O)Nc2cc(CN3CCNCC3)cc(-c3nc4ncccc4o3)c2)c(OC)c1
b: O=C(Nc1ccccc1-c1nc2ncccc2[nH]1)c1ccc(N2CCOCC2)cc1
c: COc1cc(OC)cc(C(=O)Nc2ccccc2-c2nc3ccccc3[nH]2)c1
List the 3 entries from lowest EC1.5 to highest EC1.5 value. Form field (ranking): labels in requested order.
a, b, c
